Values from ChEMBL document CHEMBL4428071

# Target entity: Mast/stem cell growth factor receptor Kit (Homo sapiens, UniProt P10721, T670I)
# Sequence (P10721 26-976 T670I limits assumed): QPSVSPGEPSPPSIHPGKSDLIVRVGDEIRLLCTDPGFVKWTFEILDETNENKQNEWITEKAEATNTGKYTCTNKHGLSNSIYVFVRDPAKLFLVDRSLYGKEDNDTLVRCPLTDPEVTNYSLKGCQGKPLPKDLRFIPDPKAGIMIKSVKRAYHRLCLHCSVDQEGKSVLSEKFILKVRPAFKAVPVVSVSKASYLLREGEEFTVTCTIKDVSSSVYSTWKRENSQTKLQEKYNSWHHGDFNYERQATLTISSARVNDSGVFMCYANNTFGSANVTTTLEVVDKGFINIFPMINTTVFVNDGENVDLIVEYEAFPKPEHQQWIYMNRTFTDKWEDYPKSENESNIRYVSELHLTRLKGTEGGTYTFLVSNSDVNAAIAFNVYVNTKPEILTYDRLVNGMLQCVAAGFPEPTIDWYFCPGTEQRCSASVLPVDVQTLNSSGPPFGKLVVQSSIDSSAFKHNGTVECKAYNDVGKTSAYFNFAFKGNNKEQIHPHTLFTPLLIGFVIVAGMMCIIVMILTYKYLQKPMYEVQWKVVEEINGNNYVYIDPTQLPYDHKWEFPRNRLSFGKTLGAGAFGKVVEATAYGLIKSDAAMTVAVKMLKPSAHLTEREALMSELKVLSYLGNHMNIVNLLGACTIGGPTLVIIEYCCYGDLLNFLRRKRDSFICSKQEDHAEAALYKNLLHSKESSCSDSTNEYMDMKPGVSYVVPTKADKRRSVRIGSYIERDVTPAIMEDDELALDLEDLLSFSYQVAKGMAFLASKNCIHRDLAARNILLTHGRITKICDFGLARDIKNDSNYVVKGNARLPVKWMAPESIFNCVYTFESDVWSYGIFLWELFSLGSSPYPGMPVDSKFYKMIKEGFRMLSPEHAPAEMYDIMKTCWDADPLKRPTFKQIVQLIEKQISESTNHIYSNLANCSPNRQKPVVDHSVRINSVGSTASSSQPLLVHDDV
# Experiment summary: Inhibition of cKIT T670I mutant autophosphorylation at Y823 in human GIST-5R cells at 0.1 to 3 uM after 1 hr by Western blot analysis
# Format: cell-based
Reported property: EC50

* CCC(=O)NCC1CCN(c2ccc(NC(=O)Nc3cccc(Oc4ccnc5cc(OC)c(OC)cc45)c3)cc2C(F)(F)F)CC1 | < 100 nM

---

# Target entity: Mast/stem cell growth factor receptor Kit (Homo sapiens)
# Experiment summary: Inhibition of TEL-fused cKIT (unknown origin) expressed in mouse BA/F3 cells assessed as cell growth inhibition after 72 hrs by cell titer-glo assay
# Assay type: cell-based
Reported property: GI50 (nM)

- COc1cc2nccc(Oc3cccc(NC(=O)Nc4ccc(N5CCC(NC(=O)CN)CC5)c(C(F)(F)F)c4)c3)c2cc1OC: 130
- CCS(=O)(=O)NC1CCN(c2ccc(NC(=O)Nc3cccc(Oc4ccnc5cc(OC)c(OC)cc45)c3)cc2C(F)(F)F)CC1: 34
- COc1cc2nccc(Oc3cccc(NC(=O)Nc4ccc(N5CCC(NC(=O)CCN6CCOCC6)CC5)c(C(F)(F)F)c4)c3)c2cc1OC: 42
- COc1cc2nccc(Oc3cccc(NC(=O)Nc4ccc(N5CCC(NC(=O)C6=CCCCC6)CC5)c(C(F)(F)F)c4)c3)c2cc1OC: 760
- COc1cc2nccc(Oc3cccc(NC(=O)Nc4ccc(N5CCC(NC(=O)CN6CCCC(C)C6)CC5)c(C(F)(F)F)c4)c3)c2cc1OC (configuration not stated): 330
- COc1cc2nccc(Oc3cccc(NC(=O)Nc4ccc(N5CCC(NC(=O)c6cccnc6)CC5)c(C(F)(F)F)c4)c3)c2cc1OC: 20

---

# Target entity: Mast/stem cell growth factor receptor Kit (Homo sapiens, UniProt P10721)
# Sequence (P10721 whole entry, the tested form may be a part): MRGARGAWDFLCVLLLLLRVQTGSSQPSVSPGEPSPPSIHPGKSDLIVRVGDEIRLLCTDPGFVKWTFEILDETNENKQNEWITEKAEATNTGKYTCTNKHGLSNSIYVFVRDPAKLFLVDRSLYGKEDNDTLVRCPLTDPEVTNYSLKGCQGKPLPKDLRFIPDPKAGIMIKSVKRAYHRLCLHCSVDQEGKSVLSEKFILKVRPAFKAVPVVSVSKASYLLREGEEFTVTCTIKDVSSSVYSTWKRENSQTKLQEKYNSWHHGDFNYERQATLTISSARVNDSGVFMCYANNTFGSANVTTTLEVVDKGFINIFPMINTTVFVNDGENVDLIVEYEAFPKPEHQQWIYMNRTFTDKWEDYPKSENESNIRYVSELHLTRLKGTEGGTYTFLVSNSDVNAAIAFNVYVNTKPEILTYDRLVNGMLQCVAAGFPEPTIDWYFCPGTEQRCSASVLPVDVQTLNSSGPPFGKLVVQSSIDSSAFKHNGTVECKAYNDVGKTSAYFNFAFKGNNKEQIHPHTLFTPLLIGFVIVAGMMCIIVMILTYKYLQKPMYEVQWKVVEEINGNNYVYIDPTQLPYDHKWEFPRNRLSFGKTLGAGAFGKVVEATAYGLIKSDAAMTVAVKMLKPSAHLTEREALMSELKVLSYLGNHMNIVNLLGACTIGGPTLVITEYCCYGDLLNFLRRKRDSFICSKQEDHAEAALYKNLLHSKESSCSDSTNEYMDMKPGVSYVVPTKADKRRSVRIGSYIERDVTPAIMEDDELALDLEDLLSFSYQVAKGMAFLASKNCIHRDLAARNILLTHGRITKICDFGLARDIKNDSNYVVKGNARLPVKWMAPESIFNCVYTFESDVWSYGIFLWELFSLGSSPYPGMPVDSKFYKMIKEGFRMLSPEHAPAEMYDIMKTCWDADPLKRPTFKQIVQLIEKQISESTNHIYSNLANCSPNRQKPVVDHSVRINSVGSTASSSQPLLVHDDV
# Experiment summary: Inhibition of TEL-fused cKIT (unknown origin) expressed in mouse BA/F3 cells assessed as cell growth inhibition after 72 hrs by cell titer-glo assay
# Assay type: cell-based
log10 of GI50 values for the compounds below.
Reported property: log10 of GI50 (log10 of the value in nM)

• CCC(=O)NC1CCN(c2ccc(C(=O)Nc3cccc(Oc4ccnc5cc(OC)c(OC)cc45)c3)cc2C(F)(F)F)CC1 = 2.60
• COc1cc2nccc(Oc3cccc(NC(=O)Nc4ccc(N5CCC(NC(=O)CN6CCCCC6)CC5)c(C(F)(F)F)c4)c3)c2cc1OC = 2.08
• COc1cc2nccc(Oc3cccc(NC(=O)Nc4ccc(N5CCC(NC(=O)C6CCNC(C)C6)CC5)c(C(F)(F)F)c4)c3)c2cc1OC (centres undefined) = 2.66
• CCC(=O)NC1CCN(c2ccc(NC(=O)Nc3cccc(Oc4ccnc5cc(OC)c(OC)cc45)c3)cc2C(F)(F)F)CC1 = 2.08
• COc1cc2nccc(Oc3cccc(NC(=O)Nc4ccc(N5CCC(NC(=O)C(C)N)CC5)c(C(F)(F)F)c4)c3)c2cc1OC (single isomer, unassigned) = 2.08
• COc1cc2nccc(Oc3cccc(NC(=O)Nc4ccc(N5CCC(NC(=O)C6CCCN(C(=O)OC(C)(C)C)C6)CC5)c(C(F)(F)F)c4)c3)c2cc1OC (centres undefined) = 2.11
• COc1cc2nccc(Oc3cccc(NC(=O)Nc4ccc(N5CCC(NC(=O)C6CCN(C)CC6)CC5)c(C(F)(F)F)c4)c3)c2cc1OC = 2.20
• CCC(=O)NC1CCCN(c2ccc(NC(=O)Nc3cccc(Oc4ccnc5cc(OC)c(OC)cc45)c3)cc2C(F)(F)F)C1 (centres undefined) = 2.45
• COc1cc2nccc(Oc3cccc(NC(=O)Nc4ccc(N5CCC(NC(=O)CCN6CCCCC6)CC5)c(C(F)(F)F)c4)c3)c2cc1OC = 2.64
• CCN1CCC(C(=O)NC2CCN(c3ccc(NC(=O)Nc4cccc(Oc5ccnc6cc(OC)c(OC)cc56)c4)cc3C(F)(F)F)CC2)CC1 = 1.59
• COc1cc2nccc(Oc3cccc(NC(=O)Nc4ccc(N5CCC(NC(=O)CN(C)C)CC5)c(C(F)(F)F)c4)c3)c2cc1OC = 1.58
• COc1cc2nccc(Oc3cccc(NC(=O)Nc4ccc(N5CCC(CNC(=O)CCC6CCCCN6C)CC5)c(C(F)(F)F)c4)c3)c2cc1OC (centres undefined) = 2.40
• COc1cc2nccc(Oc3cccc(NC(=O)Nc4ccc(N5CCC(NC(=O)C6CCN(C(=O)C7CC7)CC6)CC5)c(C(F)(F)F)c4)c3)c2cc1OC = 2.11
• CCC(=O)Nc1ccc(N2CCC(NC(=O)Nc3cccc(Oc4ccnc5cc(OC)c(OC)cc45)c3)CC2)c(C(F)(F)F)c1 = 2.53
• COc1cc2nccc(Oc3cccc(NC(=O)Nc4ccc(N5CCC(NC(=O)C6CCOCC6)CC5)c(C(F)(F)F)c4)c3)c2cc1OC = 1.94
• CCCS(=O)(=O)NC1CCN(c2ccc(NC(=O)Nc3cccc(Oc4ccnc5cc(OC)c(OC)cc45)c3)cc2C(F)(F)F)CC1 = 1.77
• CCC(=O)NCC1CCN(c2ccc(NC(=O)Nc3cccc(Oc4ccnc5cc(OC)c(OC)cc45)c3)cc2C(F)(F)F)CC1 = 1.76
• COc1cc2nccc(Oc3cccc(NC(=O)Nc4ccc(N5CCC(NS(=O)(=O)C6CC6)CC5)c(C(F)(F)F)c4)c3)c2cc1OC = 2.15
• COc1cc2nccc(Oc3cccc(NC(=O)Nc4ccc(N5CCC(NC(C)=O)CC5)c(C(F)(F)F)c4)c3)c2cc1OC = 2.04
• COc1cc2nccc(Oc3cccc(NC(=O)Nc4ccc(N5CCC(NC(=O)CC(C)(C)C)CC5)c(C(F)(F)F)c4)c3)c2cc1OC = 2.63
• COc1cc2nccc(Oc3cccc(NC(=O)Nc4ccc(N5CCC(NC(=O)CCC6CCCCN6C)CC5)c(C(F)(F)F)c4)c3)c2cc1OC (centres undefined) = 2.28
• COc1cc2nccc(Oc3cccc(NC(=O)Nc4ccc(N5CCC(NS(C)(=O)=O)CC5)c(C(F)(F)F)c4)c3)c2cc1OC = 3.59
• COc1cc2nccc(Oc3cccc(NC(=O)Nc4ccc(N5CCC(NC(=O)C6CCN(C(C)=O)CC6)CC5)c(C(F)(F)F)c4)c3)c2cc1OC = 1.77

---

# Test system: Mast/stem cell growth factor receptor Kit (Homo sapiens), P10721 [T670I]
# Sequence (P10721 whole entry T670I, the tested form may be a part): as the sequence (P10721 whole entry, the tested form may be a part) above, with T670I counted along it
# Experiment summary: Inhibition of TEL-fused cKIT T670I mutant (unknown origin) expressed in mouse BA/F3 cells assessed as cell growth inhibition after 72 hrs by cell titer-glo assay
# Assay type: cell-based
// classify(record): look up GI50 in ranges A = under 80 nM, B = from 80 nM up to 300 nM, C = 300 nM and over

• COc1cc2nccc(Oc3cccc(NC(=O)Nc4ccc(N5CCC(NC(=O)CC(C)(C)C)CC5)c(C(F)(F)F)c4)c3)c2cc1OC = C
• COc1cc2nccc(Oc3cccc(NC(=O)Nc4ccc(N5CCC(NC(=O)C6CCN(C(C)=O)CC6)CC5)c(C(F)(F)F)c4)c3)c2cc1OC = B
• COc1cc2nccc(Oc3cccc(NC(=O)Nc4ccc(N5CCC(NC(C)=O)CC5)c(C(F)(F)F)c4)c3)c2cc1OC = A
• COc1cc2nccc(Oc3cccc(NC(=O)Nc4ccc(N5CCC(NC(=O)C(C)N)CC5)c(C(F)(F)F)c4)c3)c2cc1OC (single isomer, unassigned) = C
• COc1cc2nccc(Oc3cccc(NC(=O)Nc4ccc(N5CCC(CNC(=O)CCC6CCCCN6C)CC5)c(C(F)(F)F)c4)c3)c2cc1OC (centres undefined) = C
• COc1cc2nccc(Oc3cccc(NC(=O)Nc4ccc(N5CCC(NC(=O)C6CCOCC6)CC5)c(C(F)(F)F)c4)c3)c2cc1OC = B
• CCC(=O)NC1CCN(c2ccc(C(=O)Nc3cccc(Oc4ccnc5cc(OC)c(OC)cc45)c3)cc2C(F)(F)F)CC1 = C
• COc1cc2nccc(Oc3cccc(NC(=O)Nc4ccc(N5CCC(NS(=O)(=O)C6CC6)CC5)c(C(F)(F)F)c4)c3)c2cc1OC = A
• CCN(CC)CCNC(=O)c1c(C)[nH]c(/C=C2\C(=O)Nc3ccc(F)cc32)c1C = A
• COc1cc2nccc(Oc3cccc(NC(=O)Nc4ccc(N5CCC(NC(=O)CCN6CCOCC6)CC5)c(C(F)(F)F)c4)c3)c2cc1OC = A
• CCC(=O)NC1CCCN(c2ccc(NC(=O)Nc3cccc(Oc4ccnc5cc(OC)c(OC)cc45)c3)cc2C(F)(F)F)C1 (centres undefined) = C
• COc1cc2nccc(Oc3cccc(NC(=O)Nc4ccc(N5CCC(NC(=O)CCN6CCCCC6)CC5)c(C(F)(F)F)c4)c3)c2cc1OC = B
• CCC(=O)NCC1CCN(c2ccc(NC(=O)Nc3cccc(Oc4ccnc5cc(OC)c(OC)cc45)c3)cc2C(F)(F)F)CC1 = A
• COc1cc2nccc(Oc3cccc(NC(=O)Nc4ccc(N5CCC(NC(=O)CN(C)C)CC5)c(C(F)(F)F)c4)c3)c2cc1OC = A
• COc1cc2nccc(Oc3cccc(NC(=O)Nc4ccc(N5CCC(NC(=O)c6cccnc6)CC5)c(C(F)(F)F)c4)c3)c2cc1OC = C
• COc1cc2nccc(Oc3cccc(NC(=O)Nc4ccc(N5CCC(NC(=O)C6CCCN(C(=O)OC(C)(C)C)C6)CC5)c(C(F)(F)F)c4)c3)c2cc1OC (centres undefined) = B
• Cc1ccc(NC(=O)c2ccc(CN3CCN(C)CC3)cc2)cc1Nc1nccc(-c2cccnc2)n1 = C
• CCS(=O)(=O)NC1CCN(c2ccc(NC(=O)Nc3cccc(Oc4ccnc5cc(OC)c(OC)cc45)c3)cc2C(F)(F)F)CC1 = C
• CCC(=O)NC1CCN(c2ccc(NC(=O)Nc3cccc(Oc4ccnc5cc(OC)c(OC)cc45)c3)cc2C(F)(F)F)CC1 = A
• COc1cc2nccc(Oc3cccc(NC(=O)Nc4ccc(N5CCC(NS(C)(=O)=O)CC5)c(C(F)(F)F)c4)c3)c2cc1OC = C
• CCC(=O)Nc1ccc(N2CCC(NC(=O)Nc3cccc(Oc4ccnc5cc(OC)c(OC)cc45)c3)CC2)c(C(F)(F)F)c1 = C
• COc1cc2nccc(Oc3cccc(NC(=O)Nc4ccc(N5CCC(NC(=O)CN6CCCCC6)CC5)c(C(F)(F)F)c4)c3)c2cc1OC = A
• CCC(=O)NC1CCN(c2ccc(NC(=O)C3(C(=O)Nc4cccc(Oc5ccnc6cc(OC)c(OC)cc56)c4)CC3)cc2C(F)(F)F)CC1 = C
• COc1cc2nccc(Oc3cccc(NC(=O)Nc4ccc(N5CCC(NC(=O)CN6CCCC(C)C6)CC5)c(C(F)(F)F)c4)c3)c2cc1OC (centres undefined) = B
• COc1cc2nccc(Oc3cccc(NC(=O)Nc4ccc(N5CCC(NC(=O)C6=CCCCC6)CC5)c(C(F)(F)F)c4)c3)c2cc1OC = C
• CCN1CCC(C(=O)NC2CCN(c3ccc(NC(=O)Nc4cccc(Oc5ccnc6cc(OC)c(OC)cc56)c4)cc3C(F)(F)F)CC2)CC1 = B
• CCC(=O)NC1CCN(c2ccc(NC(=O)Nc3cccc(Oc4ccnc5cc(OC)c(OC)cc45)c3)cc2)CC1 = C
• CCCS(=O)(=O)NC1CCN(c2ccc(NC(=O)Nc3cccc(Oc4ccnc5cc(OC)c(OC)cc45)c3)cc2C(F)(F)F)CC1 = C
